STUDY TARGET: Ubiquitin carboxyl-terminal hydrolase 1 (Homo sapiens)
PROTOCOL DESCRIPTION: Inhibitors of USP1/UAF1: Pilot qHTS (AID 504865);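 further: rhodamine fluorescence freed from ubiquitin-rhodamine substrate followed over time; top concentration of the series differs between compounds; nearly all actives have a fitted effect of over 35% in size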
DETAILS: purified USP1/UAF1, Ub-rhodamine cleavage fluorescence; series mostly up to 114 µM
Inconclusive results are not listed. The source made the active and inactive calls. The call rests on the fitted dose curve; in most records, active means well fitted inhibition curve with a large enough effect; inconclusive means small, poorly fitted or top-dose-only effect; inactive means flat fitted curve, though single readings scatter.
QUANTITY MEASURED: Potency

MOLECULE	STUDY TARGET	Potency
C=C1[C@@H]2C[C@@]3([C@H]1O)[C@H]1C[C@@H]4[C@@]5(C)CC[C@H](O)[C@]4([C@H]1N(CC)C5)[C@H]3C[C@H]2O	Ubiquitin carboxyl-terminal hydrolase 1 (Homo sapiens)	inactive
CC1/C=C/C=C/CC/C=C/C=C/C=C/C=C/C(OC2OC(C)C(O)C(N)C2O)CC2O[C@](O)(CC(O)C(O)CCC(O)CC(O)CC(O)CC(=O)OC(C)C(C)C1O)CC(O)C2C(=O)O (stereo not given in full)	Ubiquitin carboxyl-terminal hydrolase 1 (Homo sapiens)	inactive
C=C[C@H]1CN2CC[C@@H]1C[C@H]2[C@@H](O)c1ccnc2ccccc12	Ubiquitin carboxyl-terminal hydrolase 1 (Homo sapiens)	inactive
CC(C)(C)C(=O)C(Oc1ccc(Cl)cc1)n1cncn1 (stereo not given)	Ubiquitin carboxyl-terminal hydrolase 1 (Homo sapiens)	inactive
COc1cc2c(c(OC)c1OC)-c1ccc(O)c(=O)cc1C(NC(C)=O)CC2 (stereo not given)	Ubiquitin carboxyl-terminal hydrolase 1 (Homo sapiens)	inactive

Reported Potency for CN1Cc2c(ccc3c2OCO3)[C@@H]2[C@@H](O)Cc3cc4c(cc3[C@@H]21)OCO4 : what is it?
inactive

If you can, please state the reported Potency value of Cc1[nH]c2ccccc2c1CN(C)C .
inactive

Need Potency, item CN1[C@@H](C[C@@H](O)c2ccccc2)CCC[C@@H]1C[C@H](O)c1ccccc1
inactive

Need Potency of O=C(O)COc1ccc(Cl)cc1Cl , thanks.
inactive

Taken from PubChem BioAssay (NCATS).
